// reported Percent Effect per item
- Test system: Trypanosoma cruzi
- assay-summary: Trypanosoma cruzi phosphomannomutase and mannose-1-phosphate guanylyltransferase assay
- Assay type: functional
- Design: scale not given: direction of the effect not stated beside the values
- test-parameters: 10 µM
quantity: Percent Effect (%)

compound="Cc1nc(C)n(CC2CCCN2CCOc2ccc(C#N)cc2)n1 (stereo not drawn)" readout_value=7.27
compound=CC(C)(C)c1ccc(C2(C(=O)NCCCS(C)(=O)=O)CC2)cc1 readout_value=-7.77
compound="Cc1csc(Nc2cc(C3CCCCN3C)nc(C)n2)n1 (stereo not drawn)" readout_value=-5.71

* * *

- system-name: Sialic acid-binding Ig-like lectin 9 (Homo sapiens)
- assay-summary: Hs-Siglec9 ALPHAscreen SOP 20170721
- Parameters: scale not given: direction of the effect not stated beside the values
- test-parameters: 10 µM
quantity: Percent Effect (%)

molecule=Cc1cc(NCc2cc3n(n2)CCCN(S(C)(=O)=O)C3)ncn1 readout_value=4.07
molecule=Cc1nc(-c2ccccc2F)sc1C(=O)N1CCN(C)CC1 readout_value=4.45
molecule="CCOCC1CC2(CCN(C(=O)c3ccccc3F)CC2)CO1 (stereo unspecified)" readout_value=-7.4
molecule=O=C(c1cc(C2CC2)[nH]n1)N1CCN(Cc2ccsc2)CC1 readout_value=10.8
molecule=CCS(=O)(=O)N1CCC[C@]2(C(=O)N(C)C)CN(c3ncccn3)C[C@@H]2C1 readout_value=3.64
molecule=CCOc1ccccc1-c1noc(CN(C)Cc2cnn(C)c2)n1 readout_value=7.46
molecule=CNC(=O)Cn1cc(C#N)c(=O)c2cc(Br)ccc21 readout_value=16.9
molecule=O=C(NCc1ccco1)[C@H]1C[C@@H]2CCN(c3ccncn3)C[C@@H]2O1 readout_value=2.91
molecule=c1ccc(OCc2nnc3n2CCN(CC2CCOCC2)C3)nc1 readout_value=-1.26
molecule="Cn1cc(C2COC3(CCN(C(=O)Cn4cccn4)CC3)C2)cn1 (stereo unspecified)" readout_value=-2.55
molecule="Cc1nn(-c2ccccc2)c2c1C(c1ccc(C(=O)O)cc1)CC(=O)N2 (stereo unspecified)" readout_value=13.8
molecule=COc1cccc2c1ccn2CC(=O)N[C@@H](CCSC)C(=O)O readout_value=3.95
molecule="COc1cccc(OCC2CCCN(C(C)=O)C2)c1 (stereo unspecified)" readout_value=-3.67
molecule=CN(C)C(=O)N1CCN(Cc2noc(Cc3ccccc3)n2)CC1 readout_value=6.32
molecule="Cc1nc(-c2cccc(C(=O)O)c2)cc(C2CCN(C(C)C)C2)n1 (stereo unspecified)" readout_value=1.03
molecule="COCCC(=O)N1CCn2c(COCC3CC3)cnc2C1C (stereo unspecified)" readout_value=6.82

* * *

- system-name: Proteasome subunit beta (Trypanosoma cruzi) (UniProt O96673)
- Sequence (whole entry): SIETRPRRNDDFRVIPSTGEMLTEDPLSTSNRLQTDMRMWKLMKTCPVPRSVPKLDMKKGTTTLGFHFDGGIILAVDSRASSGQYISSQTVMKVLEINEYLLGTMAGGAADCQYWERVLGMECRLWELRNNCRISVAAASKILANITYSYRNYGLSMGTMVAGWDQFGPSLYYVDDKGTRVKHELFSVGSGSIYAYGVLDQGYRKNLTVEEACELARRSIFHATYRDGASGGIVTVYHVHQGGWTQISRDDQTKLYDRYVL
- assay-summary: Trypanosoma cruzi proteasome chymotrypsin-like activity (TcProtChymo) assay. Also: in the data most compounds retested in dose-response had high values.
- Format: functional
- Design: scale not given: direction of the effect not stated beside the values
- test-parameters: 9.37 µM
quantity: Percent Effect (%)

compound=C[C@@H]1C(=O)NC[C@H]2CN(CCc3ccccc3)C[C@H]21 quantity="Percent Effect" readout_value=11.4
compound=CC(C)C(=O)N1CCC(c2nc(O)cc(-c3ccncc3)n2)CC1 quantity="Percent Effect" readout_value=10.9
compound="CCN1CC(C(=O)NCc2ccnc(-n3ccnc3C)c2)CC1=O (stereo not drawn)" quantity="Percent Effect" readout_value=3.02
compound=COc1ccc(Nc2nc3c(C)nn(C)c3c(=O)n2C)c(OC)c1 quantity="Percent Effect" readout_value=10.3
compound=O=C(NCC1CC1)[C@H]1C[C@H]2OCC[C@H]2N(Cc2ccsc2)C1 quantity="Percent Effect" readout_value=2.38
compound="Cc1csc(N2CCN(CCc3ccccn3)CC2C)n1 (stereo not drawn)" quantity="Percent Effect" readout_value=4.79
compound="CCN1CCC(NC(=O)CN2CCCC2Cn2cncn2)CC1 (stereo not drawn)" quantity="Percent Effect" readout_value=8.92
compound="c1ccc(CNC2CCc3ncnn3C2)nc1 (stereo not drawn)" quantity="Percent Effect" readout_value=21.1
compound="CCn1ccnc1CN1CCC(N(C)Cc2ncc(C)o2)C1 (stereo not drawn)" quantity="Percent Effect" readout_value=12.5
compound="COc1ccc(CNC2CCCN(Cc3noc(C)n3)C2)cc1F (stereo not drawn)" quantity="Percent Effect" readout_value=-1.01
compound="c1coc(-c2nnc(CN3CCCC(CN4CCCCCC4)C3)o2)c1 (stereo not drawn)" quantity="Percent Effect" readout_value=-1.25
compound=CC(=O)N1C[C@@H](c2ccsc2)[C@@H]2CN(Cc3cccc(Cl)c3)CC[C@@H]21 quantity="Percent Effect" readout_value=6.9
compound=Cc1nn(C)c2cnn(CC(=O)NCCc3ccccc3)c12 quantity="Percent Effect" readout_value=13.3
compound="CC(C)c1nnc(CN2CCCC2Cn2cncn2)o1 (stereo not drawn)" quantity="Percent Effect" readout_value=10.3
compound="Cc1nc(C)n(CC2CCCN(CCOc3cccc(C#N)c3)C2)n1 (stereo not drawn)" quantity="Percent Effect" readout_value=11.2
compound="Cc1nn(-c2ccccc2)cc1C(=O)N1CCCN2CCCC2C1 (stereo not drawn)" quantity="Percent Effect" readout_value=7.21
compound="CC(C)(N)C(=O)N1CCCC1c1cncc(Oc2ccc(F)cc2)n1 (stereo not drawn)" quantity="Percent Effect" readout_value=1.31
compound=Cn1ccnc1CN1CCCN(C(=O)c2ccc(Cl)o2)CC1 quantity="Percent Effect" readout_value=3.13
